Target: delF508-CFTR (Homo sapiens, UniProt P13569, DEL508-508)
Construct: Unaltered CFBE41o− cells were used as the model; endogenous in cells; host or cells: CFBE41o- human CF bronchial epithelial cells (delF508 homozygous, not overexpressing)
Sequence (P13569 with tags, fused parts or gaps DEL508-508): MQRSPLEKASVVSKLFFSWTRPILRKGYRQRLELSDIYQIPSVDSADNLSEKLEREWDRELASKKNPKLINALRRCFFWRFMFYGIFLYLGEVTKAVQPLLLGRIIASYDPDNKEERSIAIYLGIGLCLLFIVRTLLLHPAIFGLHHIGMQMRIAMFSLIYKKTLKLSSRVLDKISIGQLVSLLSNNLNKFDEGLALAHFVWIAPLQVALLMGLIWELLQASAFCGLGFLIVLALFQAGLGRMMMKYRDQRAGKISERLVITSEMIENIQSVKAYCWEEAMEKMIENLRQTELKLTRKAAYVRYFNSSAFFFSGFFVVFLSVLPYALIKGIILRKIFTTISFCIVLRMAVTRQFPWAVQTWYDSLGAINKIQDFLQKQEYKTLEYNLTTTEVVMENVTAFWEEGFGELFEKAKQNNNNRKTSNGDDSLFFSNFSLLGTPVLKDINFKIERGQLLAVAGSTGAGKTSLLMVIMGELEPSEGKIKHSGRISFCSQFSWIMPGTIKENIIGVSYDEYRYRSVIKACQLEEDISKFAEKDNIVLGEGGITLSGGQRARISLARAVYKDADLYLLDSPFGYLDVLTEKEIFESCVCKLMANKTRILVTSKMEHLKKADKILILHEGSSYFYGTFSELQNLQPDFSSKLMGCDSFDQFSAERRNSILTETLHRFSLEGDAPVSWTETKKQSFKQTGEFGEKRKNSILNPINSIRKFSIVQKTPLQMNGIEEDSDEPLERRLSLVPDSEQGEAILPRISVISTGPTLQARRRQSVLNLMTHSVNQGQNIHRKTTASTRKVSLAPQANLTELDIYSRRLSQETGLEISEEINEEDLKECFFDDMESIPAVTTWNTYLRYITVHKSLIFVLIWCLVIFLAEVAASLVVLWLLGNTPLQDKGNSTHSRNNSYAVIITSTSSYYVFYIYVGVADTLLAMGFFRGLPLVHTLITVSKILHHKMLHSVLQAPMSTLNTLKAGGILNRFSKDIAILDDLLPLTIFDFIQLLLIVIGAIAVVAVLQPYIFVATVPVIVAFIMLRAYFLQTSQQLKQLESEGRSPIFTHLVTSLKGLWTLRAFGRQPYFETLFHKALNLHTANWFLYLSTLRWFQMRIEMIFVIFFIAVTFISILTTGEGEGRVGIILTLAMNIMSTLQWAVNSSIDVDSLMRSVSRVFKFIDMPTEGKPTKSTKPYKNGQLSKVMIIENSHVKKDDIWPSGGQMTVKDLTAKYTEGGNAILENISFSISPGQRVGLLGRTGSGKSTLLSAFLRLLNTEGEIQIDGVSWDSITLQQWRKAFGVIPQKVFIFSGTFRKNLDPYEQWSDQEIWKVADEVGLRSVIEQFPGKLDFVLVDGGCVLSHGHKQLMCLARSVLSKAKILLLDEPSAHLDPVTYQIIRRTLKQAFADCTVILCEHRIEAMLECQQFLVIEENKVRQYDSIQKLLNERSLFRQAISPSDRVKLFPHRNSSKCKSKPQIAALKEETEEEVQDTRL
Test: SPQ halide-sensitive fluorescence dye profiling assay (rescue of halide efflux)
Format: cell-based
Conditions: VX-809 at 3 μM treated as 100% efficacy
quantity-measured: Emax (%)
Please give a number only; it is taken to be in %.

Past entries and their recorded results:
[
  {
    "molecule": "COc1ccc(Cn2nc(-c3ccc(Cl)c(Cl)c3)c3ccc(C(=O)O)nc32)cc1",
    "assayed-system": "delF508-CFTR (Homo sapiens, UniProt P13569, DEL508-508)",
    "quantity-measured": "Emax",
    "units-of-measure": "%",
    "value": 100
  },
  {
    "molecule": "Cc1c(C(=O)O)nnc2c(-c3ccccc3)c(-c3ccccc3)nn12",
    "assayed-system": "delF508-CFTR (Homo sapiens, UniProt P13569, DEL508-508)",
    "quantity-measured": "Emax",
    "units-of-measure": "%",
    "value": 0
  }
]

The measured Emax associated with Cc1nn2c(C)c(C(=O)O)nnc2c1-c1ccc(F)c(F)c1 reads 110

The compound Cc1nn2c(C)c(C(=O)O)nnc2c1-c1ccc2c(c1)OCCO2 showed Emax equal to 100

The measured Emax associated with Cc1nn2c(C)c(C(=O)OC(C)C)nnc2c1-c1ccc(Cl)cc1 reads 50

Emax reading for Cc1nn2c(C)c(C(=O)O)nnc2c1-c1ccc(OC2CCCC2)cc1 : 125

Per the records, this compound ( Cc1nn2c(C)c(C(N)=O)nnc2c1-c1ccc(Cl)c(Cl)c1 ) has Emax equal to 0

# compound Cc1nn2c(C)c(C(=O)O)nnc2c1-c1cc(Cl)cc(Cl)c1 ; its Emax = 130

The reported Emax of the compound Cc1nn2c(C)c(C(=O)O)nnc2c1-c1ccc(Cl)c(Cl)c1 was 160

###

Biological target: delF508-CFTR (Homo sapiens, UniProt P13569, DEL508-508)
Construct: Unaltered CFBE41o− cells were used as the model; endogenous in cells; host or cells: CFBE41o- human CF bronchial epithelial cells (delF508 homozygous, not overexpressing)
Experiment: SPQ halide-sensitive fluorescence dye profiling assay (rescue of halide efflux)
Type: cell-based
Settings: VX-809 at 3 μM treated as 100% efficacy
List of Emax values.
Only the number, expressed in %, is required.

Entry Cc1nn2c(C)c(C(=O)O)nnc2c1C1CCCCC1 [Compound C-51] ; assay system delF508-CFTR (Homo sapiens, UniProt P13569, DEL508-508); Emax recorded at 50

###

Molecular target: delF508-CFTR (Homo sapiens, UniProt P13569, DEL508-508)
Construct: Unaltered CFBE41o− cells were used as the model; endogenous in cells; host or cells: CFBE41o- human CF bronchial epithelial cells (delF508 homozygous, not overexpressing)
Assay: SPQ halide-sensitive fluorescence dye profiling assay (rescue of halide efflux)
Type: cell-based
Details: compared to VX-809 at 3 μM
quantity-measured: Efficacy Comparison to 3 μM VX-809

[
  {
    "molecule": "Cc1nn2c(C)c(C(=O)OC3CCCC3)nnc2c1-c1ccc(Cl)c(Cl)c1",
    "Efficacy Comparison to 3 μM VX-809": "Equivalent to VX-809"
  },
  {
    "molecule": "CCS(=O)(=O)NC(=O)c1nnc2c(-c3ccc(Cl)c(Cl)c3)c(C)nn2c1C",
    "Efficacy Comparison to 3 μM VX-809": "Equivalent to VX-809"
  },
  {
    "molecule": "Cc1nn2cc(C(=O)O)nnc2c1-c1ccc(Cl)cc1",
    "Efficacy Comparison to 3 μM VX-809": "Equivalent to VX-809"
  },
  {
    "molecule": "CNC(=O)c1nnc2c(-c3ccc(Cl)c(Cl)c3)c(C)nn2c1C",
    "Efficacy Comparison to 3 μM VX-809": "Less than VX-809"
  },
  {
    "molecule": "Cc1nn2c(C)c(C(=O)O)nnc2c1-c1ccc(OC2CCCC2)cc1",
    "Efficacy Comparison to 3 μM VX-809": "5-fold greater than VX-809"
  },
  {
    "molecule": "Cc1nn2c(C)c(C(=O)O)nnc2c1-c1ccc(Cl)c(Cl)c1",
    "Efficacy Comparison to 3 μM VX-809": "10-fold greater than VX-809"
  },
  {
    "molecule": "Cc1nn2c(C)c(C(=O)O)nnc2c1Cc1ccccc1",
    "Efficacy Comparison to 3 μM VX-809": "Less than VX-809"
  },
  {
    "molecule": "Cc1nn2c(C)c(C(=O)O)nnc2c1-c1ccc(OC(C)C)cc1",
    "Efficacy Comparison to 3 μM VX-809": "10-fold greater than VX-809"
  }
]

// next item, Efficacy Comparison to 3 μM VX-809 requested
GET /value?item= Cc1nn2c(C)c(C(=O)OC(C)C)nnc2c1-c1ccc(Cl)c(Cl)c1 &field=Efficacy Comparison to 3 μM VX-809 returns Equivalent to VX-809

###

Target: delF508-CFTR (Homo sapiens, UniProt P13569, DEL508-508)
Construct: Unaltered CFBE41o− cells were used as the model; endogenous in cells; host or cells: CFBE41o- human CF bronchial epithelial cells (delF508 homozygous, not overexpressing)
Experiment: SPQ halide-sensitive fluorescence dye profiling assay (rescue of halide efflux)
Format: cell-based
Conditions: SPQ assay, 8-point concentration-response curve, CFBE41o− cells
quantity-measured: EC50 (μM)

Observe how each entry below is paired with its result.
[
  {
    "molecule": "CCOC(=O)c1ccc2c(-c3ccc(Cl)c(Cl)c3)n[nH]c2n1 [Compound C-66.1]",
    "EC50 (μM)": "No effect"
  },
  {
    "molecule": "Cc1nn2c(C)c(-c3nnn[nH]3)nnc2c1-c1ccc(Cl)c(Cl)c1 [Compound C-40]",
    "EC50 (μM)": "No effect (toxic"
  },
  {
    "molecule": "Cc1c(C(=O)O)nnc2c(-c3ccc(Cl)cc3)c(-c3ccc(Cl)cc3)nn12 [Compound C-10]",
    "EC50 (μM)": "No effect"
  },
  {
    "molecule": "Cc1cnc(-c2nnc3c(-c4ccc(Cl)c(Cl)c4)c(C)nn3c2C)o1 [Compound C-41]",
    "EC50 (μM)": "No effect"
  },
  {
    "molecule": "CCOC(=O)c1nnc2c(-c3ccc(O)cc3)c(C)nn2c1C [Compound C-19]",
    "EC50 (μM)": "No effect"
  },
  {
    "molecule": "CCOC(=O)c1c(C(=O)OC(C)(C)C)nnc2c(-c3ccc(Cl)c(Cl)c3)c(C)nn12 [Compound C-26.2]",
    "EC50 (μM)": "No effect (toxic"
  },
  {
    "molecule": "CCOC(=O)c1nnc2c(-c3ccc(Cl)c(Cl)c3)c(C)nn2c1C(=O)OCC [Compound C-26.1]",
    "EC50 (μM)": "No effect (toxic"
  }
]

The molecule listed as CCOC(=O)c1cn2nc(C)c(-c3ccc(Cl)cc3)c2nn1 [Compound C-13] shows EC50 (μM) equal to No effect

###

Target: delF508-CFTR (Homo sapiens, UniProt P13569, DEL508-508)
Construct: Unaltered CFBE41o− cells were used as the model; endogenous in cells; host or cells: CFBE41o- human CF bronchial epithelial cells (delF508 homozygous, not overexpressing)
Experiment: SPQ halide-sensitive fluorescence dye profiling assay (rescue of halide efflux)
Type: cell-based
Details: compared to VX-809 at 3 μM
Experimental: The method of profiling can include detecting the rescue of halide efflux from a cell. The step of detecting a rescue of halide efflux from the cell can be monitored using the halide quenched dye 6-methoxy-N-(3-sulfopropyl)-quinolinium (SPQ, Molecular Probes Inc., Eugene, Oreg.). In this method, cells are treated with a compound as described herein for a period of time (e.g., 48 hours). The rescue or correction of halide efflux is then detected using the SPQ assay with the halide dye. […]
quantity-measured: Efficacy Comparison to 3 μM VX-809

Use the examples below as a reference point.
[
  {
    "molecule": "CCCOC(=O)c1nnc2c(-c3ccc(Cl)cc3)c(C)nn2c1C",
    "value": "2.5-fold greater than VX-809"
  },
  {
    "molecule": "COc1cc(-c2c(C)nn3c(C)c(C(=O)O)nnc23)ccc1Cl",
    "value": "Less than VX-809"
  },
  {
    "molecule": "Cc1nn2c(N)c(C(=O)O)nnc2c1-c1ccc(Cl)cc1",
    "value": "2-fold greater than VX-809"
  },
  {
    "molecule": "CCCOc1ccc(-c2c(C)nn3c(C)c(C(=O)OCC)nnc23)cc1",
    "value": "Less than VX-809"
  },
  {
    "molecule": "Cc1nn2c(C)c(C(=O)Oc3ccccc3)nnc2c1-c1ccc(Cl)c(Cl)c1",
    "value": "Equivalent to VX-809"
  }
]

Sample CCCOc1ccc(-c2c(C)nn3c(C)c(C(=O)O)nnc23)cc1 ; Efficacy Comparison to 3 μM VX-809 observed: 2-fold greater than VX-809

// Efficacy Comparison to 3 μM VX-809 value for CCCCOc1ccc(-c2c(C)nn3c(C)c(C(=O)O)nnc23)cc1 : 2-fold greater than VX-809

Briefly, Efficacy Comparison to 3 μM VX-809 measured for CCOc1ccc(-c2c(C)nn3c(C)c(C(=O)O)nnc23)cc1 : 3-fold greater than VX-809

Short answer for Cc1nn2c(C)c(C(=O)O)nnc2c1Cc1ccc(Cl)c(Cl)c1 : Efficacy Comparison to 3 μM VX-809 was Less than VX-809

Form: compound = Cc1nn2c(C)c(C(=O)O)nnc2c1C1CCCCC1 ; Efficacy Comparison to 3 μM VX-809 = Equivalent to VX-809

The compound listed as Cc1nn2c(C)c(CS(C)(=O)=O)nnc2c1-c1ccc(Cl)c(Cl)c1 has a reported Efficacy Comparison to 3 μM VX-809 of 2-fold greater than VX-809

These measurements were taken from patent US9676779B2.
